Recorded values, source the supplement of paper PMC4466140.

Overview of reported SPOT peptide array binding signal intensity across a group of binders:
target: ScMyo5; test: SPOT peptide array binding signal intensity (averaged, normalized) (arbitrary units (background-subtracted, floor 0; scale differs between SH3 domains)); higher = stronger binding of the SH3 domain to the peptide
Output: the number by itself.

binder "MAMRPIPPLPTESEY" , SPOT peptide array binding signal intensity observed: 3

binder "VATSTSPKLPPRGKQ" , SPOT peptide array binding signal intensity observed: 3.25

binder "RLSRLLLSLPPESFT" , SPOT peptide array binding signal intensity observed: 6

binder "KKEKKPPKIPKKVYT" , SPOT peptide array binding signal intensity observed: 4.25

binder "SKIRPTPRKPSRMAT" , SPOT peptide array binding signal intensity observed: 4

***
binder "HAPPLPPTAPPPPSL" , SPOT peptide array binding signal intensity observed: 2000
